# measured_on: N-Myc-Max complex (Homo sapiens, UniProt P04198+P61244)
# Construct: N-Myc (amino acids 309–394) and Max (amino acids 12–93); 6xHis (N); made in house; host or cells: E. coli BL21
# Sequence (P04198 379-464 limits assumed): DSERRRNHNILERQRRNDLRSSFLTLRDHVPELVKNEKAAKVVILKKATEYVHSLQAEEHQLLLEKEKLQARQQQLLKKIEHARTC
# Sequence (P61244 12-93 isoform P61244-2 limits assumed): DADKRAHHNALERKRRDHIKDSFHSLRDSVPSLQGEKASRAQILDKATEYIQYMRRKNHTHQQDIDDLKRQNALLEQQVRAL
# test_protocol: Microscale thermophoresis (MST) binding
# conditions: estimate, limited solubility in assay buffer; read-out: dissociation constant

- compound: "N#Cc1ccc(NNC(=O)c2ccc(C#N)c(Cl)c2)c(C(F)(F)F)c1"
  measured_on: "N-Myc-Max complex (Homo sapiens, UniProt P04198+P61244)"
  Kd: "> 130 µM"

###

Measured half-life at 1 μM values are reported for all entries that follow.
# test_protocol: Microsomal stability assay
# Assay type: in vitro ADME, Mouse
# conditions: mouse, mouse liver microsomes, pH 7.4, mouse liver microsomes, 1 µM compound; read-out: microsomal half-life (T1/2)
reported_property: half-life at 1 μM (h)

- compound: "N#Cc1ccc(NNC(=O)c2ccc(C#N)c(Cl)c2)c(C(F)(F)F)c1"
  reported_property: "half-life at 1 μM"
  uom: "h"
  result: 38.5
- compound: "N#Cc1ccc(NNC(=O)c2ccc(C(F)(F)F)cc2)c(C(F)(F)F)c1"
  reported_property: "half-life at 1 μM"
  uom: "h"
  result: 2.35

###

# test_protocol: Pharmacokinetics after IP and PO dosing
# Type: in vivo, male Balb/c mice
# conditions: male, Balb/c, mouse, plasma, ip, 10 mg/kg; read-out: plasma half-life (T1/2) IP
Measured half-life values are reported for all entries that follow.

- compound: "N#Cc1ccc(NNC(=O)c2ccc(C#N)c(Cl)c2)c(C(F)(F)F)c1"
  uom: "h"
  half-life: 5.5
- compound: "N#Cc1ccc(NNC(=O)c2ccc(C(F)(F)F)cc2)c(C(F)(F)F)c1"
  uom: "h"
  half-life: 5.53

###

# Test system: N-Myc-Max transcription activity (LNCaP-NMYC cells)
# test_protocol: Myc transcription assay (Cignal Myc reporter, luciferase) in LNCaP-NMYC cells
# Format: cell-based
# conditions: 24 h; 10 µM; LNCaP-NMYC; read-out: % Transcript Inhibition (10 µM)
Please mark 1 if the recorded inhibition at 10 µM is equal to or greater than 10%, and -1 if it falls below.

- compound: "N#Cc1ccc(NNC(=O)c2ccc(C#N)cc2)cc1"
  category_label: 1
- compound: "CC(F)(F)c1ccc(C(=O)NNc2ccccc2C(F)(F)F)cc1"
  category_label: -1
- compound: "N#Cc1ccc(NNC(=O)c2ccccc2)c(C(F)(F)F)c1"
  category_label: -1
- compound: "N#Cc1ccc(NNC(=O)c2ccc(C(F)(F)F)cc2)c(C(F)(F)F)c1"
  category_label: 1
- compound: "N#Cc1ccc(NNC(=O)c2cccc(C(F)(F)F)c2)c(C(F)(F)F)c1"
  category_label: 1
- compound: "N#Cc1ccc(NNC(=O)c2ccc(F)cc2)c(C(F)(F)F)c1"
  category_label: 1
- compound: "CN(C)c1ccc(C(=O)NNc2ccc(C#N)cc2C(F)(F)F)cc1"
  category_label: 1
- compound: "CC(F)(F)c1ccc(C(=O)NNc2ccc(C#N)cc2C(F)(F)F)cc1"
  category_label: 1
- compound: "N#Cc1ccc(NNC(=O)c2ccc(C(N)=O)cc2)c(C(F)(F)F)c1"
  category_label: -1
- compound: "CC(C)c1ccc(C(=O)NNc2ccc(C#N)cc2C(F)(F)F)cc1"
  category_label: 1
- compound: "N#Cc1ccc(NNC(=O)c2ccc(OC(F)F)cc2)c(C(F)(F)F)c1"
  category_label: 1
- compound: "N#Cc1ccc(C(=O)NNc2ccc(C(F)(F)F)cc2)cc1"
  category_label: 1
- compound: "O=C(NNc1ccccc1C(F)(F)F)c1ccc(C(F)(F)F)cc1"
  category_label: -1
- compound: "N#Cc1ccc(C(=O)NNc2ccc(C#N)cc2C(F)(F)F)cc1"
  category_label: 1
- compound: "O=C(NNc1ccccc1C(F)(F)F)c1ccc(F)cc1"
  category_label: 1
- compound: "N#Cc1ccc(NNC(=O)c2ccc(I)cc2)c(C(F)(F)F)c1"
  category_label: 1

All figures here come from paper PMC8910697.
